EXPERIMENTAL_SYSTEM: Amine oxidase [flavin-containing] B (Homo sapiens, UniProt P27338)
Sequence (P27338 whole entry): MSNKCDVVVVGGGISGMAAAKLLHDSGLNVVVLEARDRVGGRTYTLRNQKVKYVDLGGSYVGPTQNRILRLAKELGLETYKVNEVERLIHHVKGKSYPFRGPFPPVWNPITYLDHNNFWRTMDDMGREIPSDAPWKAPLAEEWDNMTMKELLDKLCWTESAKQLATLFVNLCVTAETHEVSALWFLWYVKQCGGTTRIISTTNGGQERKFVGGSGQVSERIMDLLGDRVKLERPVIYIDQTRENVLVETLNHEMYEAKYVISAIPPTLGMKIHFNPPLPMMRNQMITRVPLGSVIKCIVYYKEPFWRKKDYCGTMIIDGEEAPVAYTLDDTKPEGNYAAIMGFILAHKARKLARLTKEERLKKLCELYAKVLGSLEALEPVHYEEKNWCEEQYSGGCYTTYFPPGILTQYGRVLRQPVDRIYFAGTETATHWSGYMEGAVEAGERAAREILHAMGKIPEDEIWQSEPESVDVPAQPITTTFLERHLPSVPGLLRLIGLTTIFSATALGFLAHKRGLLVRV
PROTOCOL_NOTES: Inhibition of MAO-B (unknown origin)
READOUT: pIC50
Schema: pIC50 number; meaning minus log10 of the concentration expressed in molar units.

Query string: Look up pIC50 for this molecule: O=C1/C(=C/c2cccc(Br)c2)CCc2ccc(O)cc21
Result string: 7.89

* * *

PROTOCOL_NOTES: Antioxidant activity assessed as DPPH radical scavenging activity incubated for 30 mins under dark condition by absorbance based assay
Format: functional
READOUT: IC50 (µM)
# output: bare number, implied unit µM

Query string: Can you share its IC50? I mean this compound: O=C(/C=C/c1ccc(O)cc1)OC[C@H]1O[C@@H](Oc2ccc(O)c3c2C[C@H](O)CC3=O)C[C@@H](O)[C@@H]1O
Result string: 57.5

* * *

EXPERIMENTAL_SYSTEM: 1,25-dihydroxyvitamin D(3) 24-hydroxylase, mitochondrial (Homo sapiens, UniProt Q07973)
Sequence (Q07973 whole entry): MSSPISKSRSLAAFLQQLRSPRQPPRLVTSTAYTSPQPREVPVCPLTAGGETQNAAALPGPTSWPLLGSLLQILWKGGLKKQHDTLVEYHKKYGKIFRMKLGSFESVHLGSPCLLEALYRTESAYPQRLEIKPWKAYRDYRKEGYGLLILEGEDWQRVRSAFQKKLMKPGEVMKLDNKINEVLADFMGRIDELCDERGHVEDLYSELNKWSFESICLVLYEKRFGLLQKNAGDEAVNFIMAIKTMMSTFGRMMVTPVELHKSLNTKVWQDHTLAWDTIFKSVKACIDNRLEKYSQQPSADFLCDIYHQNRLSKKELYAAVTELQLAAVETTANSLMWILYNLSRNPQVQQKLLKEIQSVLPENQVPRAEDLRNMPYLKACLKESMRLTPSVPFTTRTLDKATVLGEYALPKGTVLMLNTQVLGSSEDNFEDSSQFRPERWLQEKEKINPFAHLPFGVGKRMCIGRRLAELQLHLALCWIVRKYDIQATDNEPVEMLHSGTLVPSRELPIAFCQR
PROTOCOL_NOTES: Inhibition of CYP24 (unknown origin)
Assay type: ADME
READOUT: pIC50
Formally, pIC50 is defined as -log10 of the concentration c, with c in mol/L.

Query string: Quick one: pIC50 for COc1ccc2c(c1)CC/C(=C\c1cc(C(F)(F)F)ccc1C(F)(F)F)C2=O ?
Result string: 6.05

* * *

Target or system UniProt:P06276: recorded IC50 listed per item.
Sequence (P06276 whole entry): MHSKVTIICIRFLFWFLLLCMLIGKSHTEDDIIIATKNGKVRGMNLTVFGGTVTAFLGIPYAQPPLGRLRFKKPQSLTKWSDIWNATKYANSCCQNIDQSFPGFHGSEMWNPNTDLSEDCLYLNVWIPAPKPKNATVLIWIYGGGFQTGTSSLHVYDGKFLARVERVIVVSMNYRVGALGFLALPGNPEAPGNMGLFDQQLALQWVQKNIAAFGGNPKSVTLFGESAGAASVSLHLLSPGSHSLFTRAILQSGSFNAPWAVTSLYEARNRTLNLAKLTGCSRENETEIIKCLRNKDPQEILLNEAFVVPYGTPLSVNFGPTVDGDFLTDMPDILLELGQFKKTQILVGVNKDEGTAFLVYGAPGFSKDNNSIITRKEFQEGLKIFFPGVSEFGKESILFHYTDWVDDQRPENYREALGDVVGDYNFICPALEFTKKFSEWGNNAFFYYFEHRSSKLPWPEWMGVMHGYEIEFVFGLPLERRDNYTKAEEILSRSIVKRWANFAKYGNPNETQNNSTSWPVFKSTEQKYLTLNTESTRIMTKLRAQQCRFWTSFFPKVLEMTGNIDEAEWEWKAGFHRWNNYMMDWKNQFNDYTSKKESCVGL
Field format: number, assumed µM, no unit text.

>  <COMPOUND>
COc1ccc(/C=C2\CCc3cc([N+](=O)[O-])ccc3C2=O)c(Cl)c1OC

>  <VALUE_MEASURED>
17.5

$$$$
>  <COMPOUND>
CCC1C/C(=C\c2cc(OC)c(OC)c(OC)c2Br)C(=O)c2ccccc21 (stereo not drawn)

>  <VALUE_MEASURED>
12.5

$$$$

Now, please, on to the next compound.
Query string: # get_value(readout= IC50, system= UniProt:P06276) for COc1cc(/C=C2\CCc3cc([N+](=O)[O-])ccc3C2=O)c(Br)c(OC)c1OC
Result string: 6.2

* * *

EXPERIMENTAL_SYSTEM: Amine oxidase [flavin-containing] A (Homo sapiens, UniProt P21397)
Sequence (P21397 whole entry): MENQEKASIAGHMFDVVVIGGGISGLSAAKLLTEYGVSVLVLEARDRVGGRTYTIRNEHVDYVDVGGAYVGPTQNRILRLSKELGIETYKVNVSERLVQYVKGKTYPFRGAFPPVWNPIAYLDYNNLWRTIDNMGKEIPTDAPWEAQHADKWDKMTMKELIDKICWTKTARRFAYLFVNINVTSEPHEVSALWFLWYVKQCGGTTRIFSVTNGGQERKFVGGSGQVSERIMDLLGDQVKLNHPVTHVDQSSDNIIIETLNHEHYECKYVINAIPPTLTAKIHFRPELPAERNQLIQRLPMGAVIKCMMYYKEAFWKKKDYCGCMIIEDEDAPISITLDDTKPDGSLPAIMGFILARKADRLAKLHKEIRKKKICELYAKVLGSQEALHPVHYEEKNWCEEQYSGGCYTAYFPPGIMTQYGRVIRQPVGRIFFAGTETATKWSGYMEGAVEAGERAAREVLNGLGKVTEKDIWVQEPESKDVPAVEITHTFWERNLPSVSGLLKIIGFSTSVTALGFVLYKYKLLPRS
PROTOCOL_NOTES: Inhibition of recombinant human MAO-A using kynuramine as substrate by fluorescence spectrophotometry
Reported IC50 is given for each of the following compounds.
Reply with just the number (in nM).

>  <SMILES_CODE>
O=C1CCCc2ccc(OCc3ccccc3)cc21

>  <VALUE_MEASURED>
10

$$$$

Next up:
Query string: For the compound N#Cc1ccc(COc2ccc3c(c2)C(=O)CCC3)cc1 , what IC50 is on record?
Result string: 366

* * *

System: Staphylococcus aureus
PROTOCOL_NOTES: Antibacterial activity against Staphylococcus aureus MTCC 096 assessed as bacterial growth inhibition
Format: functional
READOUT: MIC (µg/mL)
Provide the reading as a plain figure in µg/mL.

Consider the following illustrative entries.
>  <COMPOUND>
CC1SC(N2N=C3c4ccccc4CC[C@H]3[C@H]2c2ccccc2)=NC1=O (some centres undefined)

>  <MIC (µg/mL)>
6.25

$$$$
>  <COMPOUND>
CC1SC(N2N=C3c4ccccc4CC[C@H]3[C@H]2c2ccc(Cl)cc2)=NC1=O (some centres undefined)

>  <MIC (µg/mL)>
12.5

$$$$
>  <COMPOUND>
COc1ccc2c(c1)CC[C@@H]1C2=NN(C2=NC(=O)C(C)S2)[C@@H]1c1ccccc1 (some centres undefined)

>  <MIC (µg/mL)>
6.25

$$$$

Query string: Given the entry COc1ccc2c(c1)CC[C@@H]1C2=NN(C2=NC(=O)C(C)S2)[C@@H]1c1ccc(Cl)cc1 (some centres undefined) , report its measured MIC.
Result string: 12.5

* * *

PROTOCOL_NOTES: Antioxidant activity assessed as superoxide scavenging activity incubated for 20 mins by absorbance based assay
Type: functional
READOUT: pIC50
The read-out pIC50 is expressed as -log10 of concentration in moles per litre.

Query string: # query: pIC50 of entry O=C(/C=C/c1ccc(O)cc1)OC[C@H]1O[C@@H](Oc2ccc(O)c3c2C[C@H](O)CC3=O)C[C@@H](O)[C@@H]1O
Result string: 4.21

* * *

EXPERIMENTAL_SYSTEM: Amine oxidase [flavin-containing] A (Homo sapiens)
PROTOCOL_NOTES: Inhibition of MAO-A (unknown origin)
READOUT: pIC50
// pIC50 is dimensionless: -log10 of concentration (M)

>  <SMILES_CODE>
O=C1/C(=C/c2ccc(Cl)c(Cl)c2)CCc2ccc(O)cc21

>  <pIC50>
5.75

$$$$

Consider the additional compound presented here.
Query string: For the compound O=C1/C(=C/c2cccc(Br)c2)CCc2ccc(O)cc21 , what pIC50 is on record?
Result string: 6.12

* * *

IC50: recorded values
EXPERIMENTAL_SYSTEM: Acetylcholinesterase (Homo sapiens, UniProt P22303)
Sequence (P22303 whole entry): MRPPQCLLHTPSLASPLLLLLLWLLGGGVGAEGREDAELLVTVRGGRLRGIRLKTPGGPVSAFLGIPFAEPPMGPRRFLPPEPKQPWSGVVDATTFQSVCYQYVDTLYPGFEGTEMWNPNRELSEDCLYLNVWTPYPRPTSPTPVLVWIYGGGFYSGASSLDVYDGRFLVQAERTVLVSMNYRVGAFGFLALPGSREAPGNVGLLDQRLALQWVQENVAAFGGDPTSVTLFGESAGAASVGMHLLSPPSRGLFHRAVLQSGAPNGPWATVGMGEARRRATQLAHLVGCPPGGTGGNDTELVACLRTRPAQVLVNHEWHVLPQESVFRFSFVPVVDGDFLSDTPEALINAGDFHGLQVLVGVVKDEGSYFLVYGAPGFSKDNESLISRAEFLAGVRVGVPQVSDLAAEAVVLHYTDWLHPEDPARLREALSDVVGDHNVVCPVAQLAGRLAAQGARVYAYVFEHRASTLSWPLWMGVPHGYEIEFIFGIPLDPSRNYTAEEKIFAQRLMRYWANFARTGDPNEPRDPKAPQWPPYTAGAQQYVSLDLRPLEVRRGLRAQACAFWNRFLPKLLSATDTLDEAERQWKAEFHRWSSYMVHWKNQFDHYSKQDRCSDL
PROTOCOL_NOTES: Inhibition of AChE (unknown origin) using […] preincubated for 15 mins by Ellman's method
Give the value in µM but do not write µM after it.

>  <COMPOUND>
COC1CC(=O)c2c(O)ccc(O)c2C1 (stereo not drawn)

>  <IC50 [µM]>
950

$$$$

Query string: Field: IC50 (Acetylcholinesterase (Homo sapiens, UniProt P22303)). Entry: O=C1CCC(O)c2c(O)cccc21 (stereo not drawn)
Result string: 1080

Query string: Request: IC50, test system Acetylcholinesterase (Homo sapiens, UniProt P22303), entry O=C1CC(O)C(O)c2c(O)cccc21 (stereo not drawn)
Result string: 1410

* * *

EXPERIMENTAL_SYSTEM: Amine oxidase [flavin-containing] A (Homo sapiens)
PROTOCOL_NOTES: Inhibition of recombinant human MAO-A assessed as measuring amount of 4-hydroxyquinoline using kynuramine as substrate incubated for 20 mins by fluorescence spectrophotometry
READOUT: IC50
A bare number is not enough; add the unit after it.

Query string: Would you kindly share the measured IC50 for O=C1CCCc2ccc(OCc3ccc(Cl)cc3)cc21 ?
Result string: 36 nM

* * *

Tested on: MCF7
PROTOCOL_NOTES: cells
Assay type: functional, cell-based
CONDITION_LABEL: Homo sapiens, MCF7, 72 h
Description: Cytotoxicity against human MCF7 cells assessed as cell growth inhibition incubated for 3 days by MTT assay
READOUT: IC50
The reply should consist of the numeric value with the unit placed after it.

Query string: Item under review: COc1ccc(C2C(C#N)=C(N)Oc3c2s/c(=N\c2ccc(Br)cc2)n3/N=C2\CCCc3cc(OC)ccc32)cc1 (stereo unspecified) . Reported IC50?
Result string: 930 nM

* * *

Tested on: HeLa
PROTOCOL_NOTES: Cytotoxicity against human HeLa cells assessed as cell growth inhibition incubated for 72 hrs by sulforhodamine B assay
Assay type: functional, cell-based
READOUT: IC50 (µM)
The answer is to be given in µM; state only the numeric part.

Query string: What does the record list as IC50 for O=C1c2c(O)cccc2[C@@H](O[C@@H]2O[C@H](CO)[C@@H](O)[C@H](O)[C@H]2O)C[C@@H]1[C@H]1C[C@H](O)c2c(O[C@@H]3O[C@H](CO)[C@@H](O)[C@H](O)[C@H]3O)ccc(O)c2C1=O ?
Result string: 85.1

* * *

EXPERIMENTAL_SYSTEM: Acetylcholinesterase (Homo sapiens, UniProt P22303)
PROTOCOL_NOTES: Inhibition of AChE (unknown origin) using acetylthiocholine iodide as substrate incubated for 5 mins by Ellman's method
In this section, each of the compounds is paired with its reported pIC50.
Kindly note that pIC50 refers to -log10 of the concentration in mol/L and answer with the value alone.

Worked examples, 2 compounds total:
>  <COMPOUND>
CCC1C/C(=C\c2cc(OC)c(OC)c(OC)c2Br)C(=O)c2ccccc21 (stereo not drawn)

>  <pIC50>
7.35

$$$$
>  <COMPOUND>
COc1cc(/C=C2\CCc3cc([N+](=O)[O-])ccc3C2=O)c(Br)c(OC)c1OC

>  <pIC50>
6.24

$$$$

Here is the next item to consider.
Query string: # value lookup — system Acetylcholinesterase (Homo sapiens, UniProt P22303), readout pIC50, item COc1ccc(/C=C2\CCc3cc([N+](=O)[O-])ccc3C2=O)c(Cl)c1OC
Result string: 5.53
